- assay notes: in vitro
- details: human, Caco-2
- Description: Apparent permeability across apical to basolateral side in human Caco-2 cells incubated for 120 mins by LC-MS/MS analysis
The following compounds are listed with their measured Papp A→B at 2 h values.
measurement kind: Papp A→B at 2 h

1) CN1CCN(c2ccc(Nc3ncc(F)c(Nc4ccccc4C(=O)NN)n3)cc2)CC1 | 5.11 ×10⁻⁶ cm/s
2) CC(C)NCC(O)COc1cccc2ccccc12 (stereo not drawn) | 32.4 ×10⁻⁶ cm/s
3) C[C@H]1O[C@@H](O[C@H]2[C@@H](O)C[C@H](O[C@H]3[C@@H](O)C[C@H](O[C@H]4CC[C@@]5(C)[C@H](CC[C@@H]6[C@@H]5C[C@@H](O)[C@]5(C)[C@@H](C7=CC(=O)OC7)CC[C@]65O)C4)O[C@@H]3C)O[C@@H]2C)C[C@H](O)[C@@H]1O | 0.25 ×10⁻⁶ cm/s
